Reference source for all entries: the RNAGym collection of RNA variant scans (doi:10.1021/acssynbio.7b00057)

Please respond with reported aptazyme ON/OFF ratio for every item in the list.
B1: Pistol ribozyme (parent)
chain: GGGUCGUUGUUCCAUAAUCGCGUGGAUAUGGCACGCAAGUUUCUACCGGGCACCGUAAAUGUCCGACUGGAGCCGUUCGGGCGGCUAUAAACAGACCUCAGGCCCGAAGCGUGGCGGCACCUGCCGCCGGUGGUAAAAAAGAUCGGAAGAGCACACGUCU

Variants of: B1
Test: aptazyme ON/OFF ratio, guanine; higher = stronger switching; co-transcriptional cleavage with and without guanine
Numbers only.

Example entries and their recorded answers appear below.
MUTATION_SPEC	MEASURED_RESULT
U7C U8G G9C U10A C12G C13U	1.19
U7C G9U U10G C13G	1.06
U7C U8A G9C C12A C13U	1.15
G9U U10C U11C	1.63
U7G U8C G9U U10G U11A C12U	1.1
U7A U8C G9C U10C C13A	1.06
U7G U8G G9A U10C U11C C12U	1.1
U8G U10A U11G C12U C13G	1.22

Items follow; give aptazyme ON/OFF ratio for each.
1. U7C U8C G9C U10C U11A C12A
2. U7G U8A G9C U10A U11C C12G C13A
3. U7C G9A U10A U11A
4. U7G G9A U11G C13G
5. U7A U8A G9U U10A U11A C12U C13U
6. U7C U8C G9U U10C U11A C13G

[reply]
1. 1.12
2. 1.04
3. 1.19
4. 1.1
5. 1.22
6. 1.14

Items follow; give aptazyme ON/OFF ratio for each.
1. U7G U8G G9C U10C C12U C13U
2. U7C U10G U11G C12G C13G
3. U7C U8A G9U U10G U11G C12G C13A

[reply]
1.08
0.991
1.21

Items follow; give aptazyme ON/OFF ratio for each.
1. U8A G9U U10C U11G C13U
2. G9U U11G C12A
3. U7C G9U U10C U11A C12U
4. U7G U8A G9C U11A C12G C13G
5. G9A C12A C13G
6. U7A U10C U11A C12G

[reply]
1. 1.14
2. 2.21
3. 1.19
4. 1
5. 1.12
6. 1.26

Items follow; give aptazyme ON/OFF ratio for each.
1. U7C U8G G9U U11C
2. U8G G9A U10A C13G

[reply]
[1.13, 1.08]

Items follow; give aptazyme ON/OFF ratio for each.
1. U7C U8G G9U U10C U11A C12U C13A
2. U7C U8C U10A U11A C13G

[reply]
1.24
1.14

Items follow; give aptazyme ON/OFF ratio for each.
1. G9C C13G
2. U8A G9C U10C U11A C13A
3. G9A U10G U11G C12U
4. U7C U8C C12A

[reply]
[1.03, 1.16, 1.48, 1.37]

Items follow; give aptazyme ON/OFF ratio for each.
1. U7A U8C G9U U10C U11A C12G
2. U7G U8C G9A U10A U11A C12A
3. U7A U8C G9A U11G C13G
4. U7G U8G G9A U10A U11G C12U C13U
5. G9A U10C U11G C12A
6. U7C U8G G9U U10C U11A C12U

[reply]
1. 1.13
2. 1.28
3. 1.31
4. 1.35
5. 1.03
6. 1.41

Items follow; give aptazyme ON/OFF ratio for each.
1. U7A U8C G9C U10C U11C C12A C13U
2. U8C U11G C12G C13G

[reply]
1: 0.998; 2: 1.19

Items follow; give aptazyme ON/OFF ratio for each.
1. U7C U8A U11C C12G
2. U8A G9U U11G C12G C13U

[reply]
1. 1.36
2. 1.16
